PROCEDURE_DETAILS: Effect of a single 2 g dose of SYM-1219 on the plasma pharmacokinetics of EE2 and NET in healthy female subjects
Type: in vivo, human
EXPERIMENTAL_CONTEXT: female, human, plasma, Group B1 Period 2: EE2/NET followed by SYM-1219 2 grams on Day 1; read-out: EE2 Cmax, Mean

>  <SMILES_TEXT>
C#C[C@]1(O)CC[C@H]2[C@@H]3CCc4cc(O)ccc4[C@H]3CC[C@@]21C

>  <Cmax / ng/mL>
0.0599

$$$$

###

PROCEDURE_DETAILS: Effect of a single 2 g dose of SYM-1219 on the plasma pharmacokinetics of EE2 and NET in healthy female subjects
Type: in vivo, human
EXPERIMENTAL_CONTEXT: female, human, plasma, Group B1 Period 1: EE2/NET alone; read-out: NET Tmax, Median
ASSAY_ENDPOINT: Tmax (h)

>  <MOLECULE>
C#C[C@]1(O)CC[C@H]2[C@@H]3CCC4=CC(=O)CC[C@@H]4[C@H]3CC[C@@]21C [NET, norethindrone]

>  <REPORTED>
1

$$$$
